Assign % Blocking to each entry below.
TARGET DESC: T1, human CCR8 (human, UniProt P51685 1-355)
T1 construct: Native CCR8 on human PBMC (CCR8+ CD3+ or CCR8+ CD4+ lymphocytes); also called chemokine (C-C motif) receptor 8
T1 sequence (P51685 whole entry): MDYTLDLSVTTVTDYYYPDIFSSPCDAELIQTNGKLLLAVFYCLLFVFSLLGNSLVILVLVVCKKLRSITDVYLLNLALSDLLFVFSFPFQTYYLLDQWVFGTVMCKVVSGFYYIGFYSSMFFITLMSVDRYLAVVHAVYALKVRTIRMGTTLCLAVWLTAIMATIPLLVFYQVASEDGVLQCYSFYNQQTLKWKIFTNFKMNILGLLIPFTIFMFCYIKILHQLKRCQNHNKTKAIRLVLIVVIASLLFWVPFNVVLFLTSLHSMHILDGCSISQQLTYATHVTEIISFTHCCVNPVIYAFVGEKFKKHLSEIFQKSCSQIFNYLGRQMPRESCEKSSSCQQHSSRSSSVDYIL
EXPERIMENTAL PROTOCOL: flow blocking, PBMC CCR8+CD3+; competitor PE-AB7
Description: For blocking studies, 100 μL of the cell suspension were incubated with 10 μg purified isotype control, AB1, AB2, AB3, AB4, AB5, AB8, AB9, AB10, AB11, AB12, AB13, AB14, AB15, and Commercial ABI antibodies, or isotype control, as blocking agents. […]
Show the value, then the unit it is measured in.

Query: Fill in: % Blocking of AB8 (antibody, V domains shown, Hybridoma monoclonal; also called antibody 8; clone 8) VH: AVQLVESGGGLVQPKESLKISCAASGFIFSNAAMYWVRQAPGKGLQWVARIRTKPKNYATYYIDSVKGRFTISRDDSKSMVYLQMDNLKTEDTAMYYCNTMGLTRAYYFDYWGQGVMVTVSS VL: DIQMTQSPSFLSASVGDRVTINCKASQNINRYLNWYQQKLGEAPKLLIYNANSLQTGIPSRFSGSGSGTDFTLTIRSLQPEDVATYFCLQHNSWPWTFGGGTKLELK is ___
Result: 26.1%

Query: Fill in: % Blocking of AB7 (antibody, V domains shown, Hybridoma monoclonal; also called antibody 7; clone 7) VH: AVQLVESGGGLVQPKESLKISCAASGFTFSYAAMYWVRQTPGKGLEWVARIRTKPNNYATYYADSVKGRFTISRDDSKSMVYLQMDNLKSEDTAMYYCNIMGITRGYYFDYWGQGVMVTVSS VL: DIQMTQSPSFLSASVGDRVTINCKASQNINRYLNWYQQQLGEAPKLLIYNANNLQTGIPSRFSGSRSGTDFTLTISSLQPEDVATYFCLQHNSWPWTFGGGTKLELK is ___
Result: 47.3%

Query: Fill in: % Blocking of AB10 (antibody, V domains shown, Hybridoma monoclonal; also called antibody 10; clone 10) VH: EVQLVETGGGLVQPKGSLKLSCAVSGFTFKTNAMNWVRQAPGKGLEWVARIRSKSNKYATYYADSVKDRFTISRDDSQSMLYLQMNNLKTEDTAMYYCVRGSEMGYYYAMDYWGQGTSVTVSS VL: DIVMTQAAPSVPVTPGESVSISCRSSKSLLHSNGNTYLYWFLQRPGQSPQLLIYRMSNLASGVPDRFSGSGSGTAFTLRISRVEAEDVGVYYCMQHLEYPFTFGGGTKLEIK is ___
Result: 52.1%

Query: Fill in: % Blocking of AB5 (antibody, V domains shown, Hybridoma monoclonal; Same VH/VL entries as AB6; also called antibody 5; clone 5) VH: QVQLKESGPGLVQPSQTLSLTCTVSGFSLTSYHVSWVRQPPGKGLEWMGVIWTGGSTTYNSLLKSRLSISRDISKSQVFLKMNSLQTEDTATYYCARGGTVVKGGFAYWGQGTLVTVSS VL: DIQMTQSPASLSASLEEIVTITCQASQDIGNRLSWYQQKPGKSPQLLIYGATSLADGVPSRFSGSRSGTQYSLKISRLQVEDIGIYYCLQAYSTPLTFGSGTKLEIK is ___
Result: -3.38%

Query: Fill in: % Blocking of AB13 (antibody, V domains shown, Hybridoma monoclonal; also called antibody 13; clone 13) VH: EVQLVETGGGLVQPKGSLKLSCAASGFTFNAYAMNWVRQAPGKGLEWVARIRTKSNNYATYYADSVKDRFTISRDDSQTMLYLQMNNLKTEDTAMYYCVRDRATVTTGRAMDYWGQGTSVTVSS VL: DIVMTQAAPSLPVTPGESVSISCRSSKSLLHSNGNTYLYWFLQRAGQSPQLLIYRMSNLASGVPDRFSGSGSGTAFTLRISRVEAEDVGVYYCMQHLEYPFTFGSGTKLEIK is ___
Result: 46.1%

The measured values listed here are drawn from patent US20240360228A1.
